- Assay Remarks: clinical
- Run Conditions: human, plasma, iv, 7 mg/m2, V (volume of distribution), Moderate Cohort C, 7 mg/m^2 IV; geometric mean ± SD
Measured Endpoint: Vd
Write the quantity with the unit trailing the number.

Enquiry: Provide Vd value for the following compound: C/C=C1\NC(=O)[C@H]2CSSCC/C=C/[C@H](CC(=O)N[C@H](C(C)C)C(=O)N2)OC(=O)[C@H](C(C)C)NC1=O [romidepsin]
Return: 19 L
